- test-description: Syringe force measurements of liquid carriers alone after 48 h
- Format: physicochemical
- conditions-used: media alone in syringe, after 48 h at ambient temperature
reported-endpoint: Glide force (N), n = 2

Here is how some molecules turned out for Glide force (N), n = 2.
State its Glide force (N), n = 2 for this molecule: OCc1ccccc1 [Benzyl Alcohol (BA), Benzyl Alcohol] 2.5

State its Glide force (N), n = 2 for this molecule: O=C(OCc1ccccc1)c1ccccc1 [Benzyl benzoate] 3.5

P = CC(=O)OCC(COC(C)=O)OC(C)=O [Triacetin]
Q = CCCCCCCC/C=C\CCCCCCCC(=O)OCC [ethyl oleate]
I would appreciate it if you could say which entry, P or Q , has the lower Glide force (N), n = 2 value. Label of pick, please. Q
(Q: 3.2 N, P: 6.1 N)
